Cited source: patent US20180079802A1

Would you kindly list Neutralization (FRNT), EC50 for each of these binders?
Molecular target: CHIKV strain RSU1 (Asian genotype) (Chikungunya virus strain RSU1)
Assay: cell-based or functional assay
One number for each entry, in ng/mL.

Below, 2 binders whose answers are already recorded.
{"columns": ["BINDER", "Neutralization (FRNT), EC50 / ng/mL"],
 "data": [
  ["2B4 (antibody, V domains shown) VH: QVQLVQSGSELKKPGASVKVSCKASGYSFTSYSINWVRQAPGQGPEWMGWIDTNTGNPTYAQDFAGRFVFSLDTSVTTAYLQISSLKAGDTAVYYCATYYVDLWGSYRQDYYGMDVWGH VL: QSVLTQPPSASGTPGQRVTISCSGGSSNIGSNPVNWYQMVPGTAPKLLLYTNNQRPSGVPDRFSGSKSGTSASLAINGLQSEDEADYYCAVWDDSLSGRWVFGGGTKVTVL", 6.5],
  ["4J21 (antibody, V domains shown) VH: QVQLVQSGSELKKPGASVKVSCKASGYSFTSYSINWVRQAPGQGPEWMGWIDTNTGNPTYAQDFAGRFVFSLDTSVTTAYLQISSLKAGDTAVYYCATYYVDLWGSYRQDYYGMDVWGHGTLVTVSS VL: QSVVTQPPSVSGTPGQGVTISCSGGSSNIGSNPVNWYQMVPGTAPKLLLYTNNQRPSGVPDRFSGSKSGTSASLAINGLQSEDEADYYCAVWDDSLSGRWVFGGGTKLTVL", 7.7]
]}

Item 5O14 (antibody, V domains shown) VH: QVQLVQSGGRVVQAGRSLRLSCAASGFTFSMYGVHWVRQAPGKGLEWVAVIWNDGSKEYYGDSVKGRFTISRDNSRNTLYLQMNSLRVDDTAVYFCARDGIPDPERGDYGGLDYWGQGTLVTVSS VL: QTVVTQFPSSPFASVGDGVTITCRARQSISSYVNWYQQKPGKAPKLLIYATSSLQSGVPSRFSGSGYGTDFTLTISGLQPEDFATYYCQQSYSFPRTFGQGTKVEIK has what recorded Neutralization (FRNT), EC50?
17.3
